- Test system: MAP3K4
- STATED_CONDITIONS: concentration: 1 μM,replicates: in singlicate; n = 1;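 also: KINOMEscan kinase panel screen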
MEASUREMENT_LABEL: %Inh (%)
Give just the numeric value; % need not be written.

# example entries with known answers
O=C(Nc1ccccc1)c1cccc(Oc2ccc3nccn3n2)c1; 20
O=C(Nc1ccc(Oc2ccc3nc(NC(=O)C4CC4)cn3n2)c(F)c1)c1cccn(-c2ccccc2)c1=O; 24
O=C(NCC1CC1)c1ccc(-c2cc(C(=O)NC3CC3)ccc2F)cc1; 0
COc1cc2nccc(Nc3ccc(Oc4ccccc4)cc3)c2cc1OC.Cl; 0
Nc1nccc(-c2ccc3c(N)n[nH]c3c2)n1; 5
Cc1ccc(Nc2ccnc(Nc3ccc4c(c3)CS(=O)(=O)C4)n2)cc1O.Cl; 29
CN(c1ccccc1CNc1nc(Nc2ccc3c(c2)CC(=O)N3)ncc1C(F)(F)F)S(C)(=O)=O; 6
N#Cc1cccc(C(=O)NC2CCN(c3ccnc(Nc4ccc(F)cc4)n3)C2)c1 (stereo not drawn); 33
COc1cc2ncn(-c3cc(OCC4CCCCC4)c(C(N)=O)s3)c2cc1OC; 0
Cn1ccc2ncnc(Oc3ccc(NC(=O)Nc4cccc(C(F)(F)F)c4)c(F)c3)c21; 13

Need %Inh of Cc1ccn2nc(-c3ccc(F)cc3)c(-c3ccncc3)c2c1.Cl , thanks.
0

Need %Inh of CN1CCN(CCNc2nc3cc(Oc4ccc(NC(=O)Nc5cc(C(F)(F)F)ccc5F)cc4)ccc3[nH]2)CC1.Cl.Cl , thanks.
0

Need %Inh of C[C@@H]1CNc2c(sc3ccc4nc(-c5ccc(O)cc5)ccc4c23)C(=O)N1 , thanks.
16

* * *

Listing of entries alongside the reported %Inh.
- Test system: ARK5
- Construct: gene NUAK1
- STATED_CONDITIONS: concentration: 1 μM,replicates: in singlicate; n = 1
Give just the numeric value; % need not be written.

CS(=O)(=O)c1cccc(CNc2nc(Nc3ccc4c(c3)[C@@H]3C[C@@H]4CNC3=O)ncc2C(F)(F)F)c1; 94.6
Cc1n[nH]c2cc(Nc3ccnc(Nc4cccc(CN5CCOCC5)c4)n3)ccc12 [GW682569]; 0
CN(c1ccc2c(c1)nc(NCc1ccc(F)cc1)n2C)c1ccnc(Nc2ccc(CS(C)(=O)=O)cc2)n1.Cl [GW813244]; 4
CN1CCN(CCCNc2nccc(-c3c(-c4ccc(F)cc4)nn4cc(C(N)=O)ccc34)n2)CC1 [GW622475]; 19
CC(C)S(=O)(=O)N1CCN(Cc2ccc3c(c2)nc(NC(=O)c2ccsc2)n3C[C@H](O)c2ccccc2)CC1 [GW635815]; 60
Cc1nnc(-c2ccc3occ(-c4ccc(S(C)=O)cc4)c3n2)o1 (centres unmarked); 10
CN(c1cccc(CNc2nc(Nc3ccc4c(c3)CC(=O)N4)ncc2C(F)(F)F)c1)S(C)(=O)=O; 99.3
O=C(Nc1cccc(Oc2ccc3nccn3n2)c1)Nc1cccc(C(F)(F)F)c1; 8

Need %Inh of COc1cccc(C2=C(Nc3cccc(Cl)c3)C(=O)NC2=O)c1 [SB-341556] , thanks.
0

Need %Inh of C[C@@H]1CNc2c(sc3ccc4nc(-c5ccncc5)ccc4c23)C(=O)N1 , thanks.
0

Need %Inh of CCOC(=O)N1CCC(n2cnc(-c3ccc(F)cc3)c2-c2ccnc(N)n2)CC1 [SB-219952] , thanks.
0

Need %Inh of Cc1ccc(CC(=O)N2CCc3cc(-c4cn(C)c5ncnc(N)c45)ccc32)cc1 [GSK2634758] , thanks.
37

Need %Inh of COC(=O)Nc1nc2cc(Oc3ccc(NC(=O)Nc4cc(C(F)(F)F)ccc4Cl)cc3)ccc2[nH]1.Cl [GW697465] , thanks.
0

Need %Inh of CC(=O)Nc1nc2cnc(Nc3cc(NC(=O)c4cccc(CC(C)(C)C#N)c4)ccc3C)nc2s1 , thanks.
7

Need %Inh of Cn1ccc2ncnc(Oc3ccc(NC(=O)Nc4cccc(C(F)(F)F)c4)c(Cl)c3)c21 , thanks.
3

Need %Inh of Cl.c1ccc(Oc2ccc(Nc3ccnc4cc(-c5ccc(CN6CCNCC6)o5)ccc34)cc2)nc1 [GW567142] , thanks.
12

Need %Inh of O=C(NCC1CC1)c1ccc(-c2cc(C(=O)NC3CC3)ccc2F)cc1 [GW810445] , thanks.
0

Need %Inh of COc1ccc(Nc2nccc(N3CCC(NC(=O)c4cccc(C#N)c4)C3)n2)cc1 (centres unmarked) [GSK1379730] , thanks.
0

Need %Inh of CCNCC(Cc1ccccc1)NC(=O)c1cc(Br)c(-c2ccnc3[nH]ccc23)s1.Cl.Cl (centres unmarked) [GSK1383280] , thanks.
60

Need %Inh of CCn1c(-c2nonc2N)nc2cncc(Br)c21 [SB-738004] , thanks.
0

Need %Inh of C[C@@H]1CCN(C(=O)N2CCCC2)C[C@@H]1N(C)c1ncnc2[nH]ccc12 , thanks.
16

Need %Inh of O=C(Nc1cccc(C(F)(F)F)c1)c1cccc(Oc2ccc3nccn3n2)c1 , thanks.
0

Need %Inh of Cl.Cl.NC[C@H](CC1CCCCC1)NC(=O)c1ccc(-c2ccnc3[nH]ccc23)s1 [GSK1581428] , thanks.
89

Need %Inh of Cn1ccc2ncnc(Oc3ccc(NC(=O)Nc4cnn(C(C)(C)C)c4)c(Cl)c3)c21 , thanks.
19

Need %Inh of OCCn1cc(-c2cnc3nnn(Cc4ccc5ncccc5c4)c3n2)cn1 , thanks.
0

Need %Inh of C[C@@H](Oc1cc(-n2cnc3cc(-c4ccncc4)ccc32)sc1C(N)=O)c1ccccc1Cl [GSK479719] , thanks.
75

Need %Inh of COc1cc2c(Nc3ccc(NC(=O)c4ccccc4)cc3)ncnc2cc1OCCCN1CCOCC1 [GSK301329] , thanks.
28

Need %Inh of CC(C(=O)NC1CCN(c2ccnc(Nc3ccc(F)cc3)n2)C1)c1ccc(Cl)cc1 (centres unmarked) [GSK1379713] , thanks.
0

Need %Inh of COc1cccc(OC)c1C(=O)Nc1cccc(-c2nn3ccccc3c2-c2ccnc(Nc3cccc(F)c3)n2)c1 [GSK361065] , thanks.
0

* * *

- Test system: QSK
- STATED_CONDITIONS: concentration: 1 μM,replicates: in singlicate; n = 1
MEASUREMENT_LABEL: %Inh (%)
Give just the numeric value; % need not be written.

# example entries with known answers
Cc1ccc(C(=O)Nc2ccc(Oc3ccc4nc(NC(=O)C5CC5)cn4c3)c(F)c2)c(=O)n1-c1ccccc1; 0
CCn1c(-c2nonc2N)nc2cncc(CNC3CCNCC3)c21.Cl; 1
C[C@@H](Oc1cc(-n2cnc3ccc(-c4ccncc4)cc32)sc1C(N)=O)c1ccccc1Cl; 0
O=C(Nc1ccc(Oc2ccc3nc(NC(=O)C4CC4)cn3n2)c(F)c1)c1cccn(-c2ccccc2)c1=O; 0
O=C(Nc1ccccc1)c1cccc(Oc2ccc3nccn3n2)c1; 0

Need %Inh of O=c1[nH]cc(-c2ccc(O)cc2)c2sc(-c3ccncc3)cc12 , thanks.
1

Need %Inh of CCOC(=O)N1CCC(n2cnc(-c3ccc(F)cc3)c2-c2ccnc(N)n2)CC1 , thanks.
0

Need %Inh of COC(=O)c1cccc(NC(=O)NC2CCN(c3ccnc(Nc4cc(OC)c(OC)c(OC)c4)n3)C2)c1 (centres unmarked) , thanks.
0

* * *

Listing of entries alongside the reported %Inh.
- Tested on: BRAF
- STATED_CONDITIONS: concentration: 1 μM,replicates: in singlicate; n = 1
Give just the numeric value; % need not be written.

Need %Inh of Cc1cccc(-c2nc(Nc3ccncc3)c3sccc3n2)n1 , thanks.
36

* * *

- Test system: EPHA1
- STATED_CONDITIONS: concentration: 1 μM,replicates: in singlicate; n = 1
MEASUREMENT_LABEL: %Inh (%)
Give just the numeric value; % need not be written.

# example entries with known answers
CN(c1ccc2c(c1)nc(NCc1ccc(F)cc1)n2C)c1ccnc(Nc2ccc(CS(C)(=O)=O)cc2)n1.Cl; 0
CC(C)c1nc(-c2cccc(NS(=O)(=O)c3ccccc3)c2)c(-c2ccnc(Nc3ccc4c(c3)CN(C)CC4)n2)s1; 93.2
CC(C(=O)NC1CCN(c2ccnc(Nc3ccc(F)cc3)n2)C1)c1ccc(Cl)cc1 (centres unmarked); 0

Need %Inh of CC(=O)Nc1nc2cnc(Nc3cc(NC(=O)c4cccc(CC(C)(C)C#N)c4)ccc3C)nc2s1 , thanks.
0

Need %Inh of Cc1ccc(C(=O)Nc2ccc(Oc3ccc4nc(NC(=O)C5CC5)cn4c3)c(F)c2)c(=O)n1-c1ccccc1 , thanks.
91.8

Need %Inh of COc1cc2c(Nc3ccc(NC(=O)c4ccccc4)cc3)ncnc2cc1OCCCN1CCOCC1 , thanks.
3

Need %Inh of NC(=O)c1ccc(-c2cc3ncnc(SCC(=O)O)c3s2)cc1 , thanks.
0

Need %Inh of CCOC(=O)N1CCC(n2cnc(-c3ccc(F)cc3)c2-c2ccnc(N)n2)CC1 , thanks.
9

Need %Inh of Cc1ccc(CC(=O)N2CCc3cc(-c4cn(C)c5ncnc(N)c45)ccc32)cc1 , thanks.
0

Need %Inh of CCNCC(Cc1ccccc1)NC(=O)c1cc(Br)c(-c2ccnc3[nH]ccc23)s1.Cl.Cl (centres unmarked) , thanks.
25
